Where these numbers come from: patent US20200331904A1

Task for the reader: assign each of the following compounds its reported Herbicidal efficacy against VERPE.
- System: Veronica persica
- ASSAY COMMENT: Post-emergence herbicidal efficacy, VERPE
- Assay type: in vivo
- TEST CONTEXT: application rate 320 g/ha, rated visually after about 3 weeks (Table B7)
I only need the number, in %, no unit after it.

// query Which Herbicidal efficacy against VERPE reading was recorded for the compound CC(=O)N1CCn2nc(N[C@@H]3CCc4ccc(C)cc43)nc2C1 ?
// result 90

// query Name the recorded Herbicidal efficacy against VERPE for Cc1ccc2c(c1)[C@H](Nc1nc3n(n1)CCN(S(=O)(=O)c1ccccc1Cl)C3)[C@@H](C)C2 .
// result 80

// query So what's the measured Herbicidal efficacy against VERPE for this one? CC(=O)N1CCn2nc(NC3c4cc(C)ccc4CC3C)nc2C1 (stereo not drawn)
// result 90

// query Given the entry O=S(=O)(C1CC1)N1CCn2nc(NC3CCCc4ccccc43)nc2C1 (stereo not drawn) , report its measured Herbicidal efficacy against VERPE.
// result 80

// query // returns reported Herbicidal efficacy against VERPE for input Cc1ccc2c(c1)C(Nc1nc3n(n1)CCCN3S(=O)(=O)C1CC1)CCC2 (stereo not drawn)
// result 90

// query So what does the record say about Herbicidal efficacy against VERPE for Cc1ccc2c(c1)C(Nc1nc3n(n1)CCCC[S+]3[O-])CC2 (stereo not drawn) ?
// result 90

// query Please look up its Herbicidal efficacy against VERPE: Cc1ccc2c(c1)[C@H](Nc1nc3n(n1)CCN(S(=O)(=O)C1CC1)C3)CCC2
// result 100

// query Tell me the measured Herbicidal efficacy against VERPE of Fc1cccc2c1CCC[C@H]2Nc1nc2n(n1)CCCCS2 , please.
// result 90

// query Would you kindly share the measured Herbicidal efficacy against VERPE for Cc1ccc2c(c1)C(Nc1nc3n(n1)CCC(=O)N3C)CC2 (stereo not drawn) ?
// result 100

====

- System: Stellaria media
- ASSAY COMMENT: Pre-emergence herbicidal efficacy, STEME
- Format: in vivo
- TEST CONTEXT: application rate 320 g/ha, scored visually after about 3 weeks
OUTCOME MEASURE: Herbicidal efficacy against STEME (%)
API: value field is a number in %; no unit string.

// query Need Herbicidal efficacy against STEME of Cc1ccc2c(c1)[C@H](Nc1nc3n(n1)CCN(C(=O)c1ccccc1)C3)CC2 [Example I-174] , thanks.
// result 100

// query Quick check: Herbicidal efficacy against STEME of O=C(C1CC1)N1CCn2nc(N[C@@H]3CCc4ccccc43)nc2C1 [Example I-160] ?
// result 100

// query # lookup: Herbicidal efficacy against STEME of O=C1CCn2nc(NC3CCCc4ccccc43)nc2N1CC1CCCCC1 (stereo not shown) [Example I-271]
// result 90

// query Suppose we examine the molecule O=C(c1ccccc1)N1CCn2nc(N[C@@H]3CCCc4ccccc43)nc2C1 [Example I-164] ; what Herbicidal efficacy against STEME value has been reported?
// result 100

====

Please go through the items and note down their Herbicidal efficacy against AMARE.
- Tested on: Amaranthus retroflexus
- ASSAY COMMENT: Pre-emergence herbicidal efficacy, AMARE
- Format: in vivo
- TEST CONTEXT: Table B2, application rate 320 g/ha, scored visually after about 3 weeks vs untreated controls

// query # Herbicidal efficacy against AMARE lookup, item Cc1ccc2c(c1)[C@H](Nc1nc3n(n1)CCCS3(=O)=O)CCO2 [Example I-378]
// result 100%

// query Would you mind telling me what Herbicidal efficacy against AMARE value was observed for Cc1ccc2c(c1)C(Nc1nc3n(n1)CCCN3S(C)(=O)=O)CCC2 (stereo not drawn) [Example I-329] ?
// result 100%

// query Recorded Herbicidal efficacy against AMARE of CCN1CCn2nc(N[C@@H]3CCCc4ccc(C)cc43)nc2C1 [Example I-343] , please.
// result 100%

====

Record form. Attribute: Herbicidal efficacy against STEME. Fill in for each entry.
- System: Stellaria media
- ASSAY COMMENT: Pre-emergence herbicidal efficacy, STEME
- Assay type: in vivo
- TEST CONTEXT: application rate 320 g/ha, scored visually after about 3 weeks
Express your answer in %, writing the number without its unit.

// query Notebook entry, Stellaria media assay: Herbicidal efficacy against STEME of Cc1ccc2c(c1)[C@H](Nc1nc3n(n1)CCN(S(=O)(=O)Cc1ccccc1)C3)CCC2 = ?
// result 100

// query I'm curious: which Herbicidal efficacy against STEME was measured for Cc1ccc2c(c1)[C@H](Nc1nc3n(n1)CCN(C(=O)c1ccccc1Cl)C3)CC2 tested on Stellaria media?
// result 100

// query Stellaria media / Herbicidal efficacy against STEME / O=C1CCn2nc(NC3CCOc4ccccc43)nc2N1CC1CCCCC1 (stereo not drawn) : value?
// result 90

// query Look up Herbicidal efficacy against STEME with Stellaria media for this compound: O=S1(=O)CCCCn2nc(NC3CCc4ccccc43)nc21 (stereo not drawn)
// result 100

// query State its Herbicidal efficacy against STEME on Stellaria media: CC(=O)N1CCn2nc(N[C@@H]3CCc4ccccc43)nc2C1
// result 100

// query Param readout = Herbicidal efficacy against STEME; param system = Stellaria media; param query = c1ccc2c(c1)OCCC2Nc1nc2n(n1)CCCS2 (racemic) ; response: value
// result 100

// query Give recorded Herbicidal efficacy against STEME with Stellaria media for the following compound: c1ccc2c(c1)OCCC2Nc1nc2n(n1)CCCCS2 (stereo not drawn)
// result 100

// query Give Herbicidal efficacy against STEME (Stellaria media) of the following compound: O=S(=O)(Cc1ccccc1)N1CCn2nc(NC3CCCc4ccccc43)nc2C1 (stereo not drawn)
// result 90

// query Reported Herbicidal efficacy against STEME for Stellaria media, given Cc1ccc2c(c1)C(Nc1nc3n(n1)CCC(=O)N3C(C)C)CCC2 (stereo not drawn) ?
// result 100

// query State its Herbicidal efficacy against STEME on Stellaria media: O=C1CCn2nc(NC3CCc4ccccc43)nc2N1CC1CC1 (stereo not drawn)
// result 100

// query // fetch Stellaria media Herbicidal efficacy against STEME for Cc1ccc2c(c1)[C@H](Nc1nc3n(n1)CCN(S(=O)(=O)c1ccccc1Cl)C3)[C@@H](C)C2
// result 100

// query Recall the recorded Herbicidal efficacy against STEME for O=S1(=O)CCCn2nc(NC3CCOc4ccccc43)nc21 (stereo not drawn) with Stellaria media and state it.
// result 80

// query Form field - read-out: Herbicidal efficacy against STEME; system: Stellaria media; submitted item: O=S1(=O)CCCn2nc(NC3CCCc4ccccc43)nc21 (stereo not drawn)
// result 100

// query What Herbicidal efficacy against STEME appears in the records for this compound with Stellaria media? O=S(=O)(C1CC1)N1CCn2nc(NC3CCCc4ccccc43)nc2C1 (stereo not drawn)
// result 100

// query Please provide the recorded Herbicidal efficacy against STEME for Cc1ccc2c(c1)C(Nc1nc3n(n1)CCN(C(=O)c1cccc(C(F)(F)F)c1)C3)C(C)C2 (stereo not drawn) , tested on Stellaria media.
// result 90

// query Value wanted: Herbicidal efficacy against STEME (Stellaria media) of entry CC(=O)N1CCn2nc(NC3CCCc4ccccc43)nc2C1 (stereo not drawn)
// result 100

// query Param readout= Herbicidal efficacy against STEME; system= Stellaria media; entry= Cc1ccc2c(c1)[C@H](Nc1nc3n(n1)CCN(C(=O)c1ccc(Cl)cc1)C3)CCC2 ; returns value.
// result 100

// query // map Cc1ccc2c(c1)[C@H](Nc1nc3n(n1)CCNC3)CCC2 to recorded Herbicidal efficacy against STEME (system: Stellaria media)
// result 100

// query Notebook entry, Stellaria media assay: Herbicidal efficacy against STEME of Cc1ccc2c(c1)[C@H](Nc1nc3n(n1)CCN(C(=O)c1ccccc1Cl)C3)CCC2 = ?
// result 100

// query Hello, I am looking for reported Herbicidal efficacy against STEME with Stellaria media for CC(=O)N1CCCn2nc(NC3CCCc4ccc(C)cc43)nc21 (stereo not drawn) . Could you help?
// result 100

// query Please state recorded Herbicidal efficacy against STEME (tested on Stellaria media) of O=S1(=O)CCCCn2nc(NC3CCCc4ccccc43)nc21 (stereo not drawn)
// result 100

// query Notebook: pull reported Herbicidal efficacy against STEME for Stellaria media, entry Cc1ccc2c(c1)[C@H](Nc1nc3n(n1)CCN(C(=O)c1ccc(Cl)cc1)C3)CC2
// result 100

// query Provide the documented Herbicidal efficacy against STEME with Stellaria media as the system for [O-][S+]1CCCCn2nc(NC3CCOc4ccccc43)nc21 (stereo not drawn)
// result 100

// query For the record CC(C)S(=O)(=O)N1CCn2nc(NC3CCCc4ccccc43)nc2C1 (stereo not drawn) , what value of Herbicidal efficacy against STEME is listed for Stellaria media?
// result 100

====

- System: Veronica persica
- ASSAY COMMENT: Post-emergence herbicidal efficacy, VERPE
- Assay type: in vivo
- TEST CONTEXT: application rate 320 g/ha, rated visually after about 3 weeks (Table B7)
Would you kindly list Herbicidal efficacy against VERPE for each of these molecules?
Mention the unit after the number when you answer.

// query Could you share which Herbicidal efficacy against VERPE value was measured for Cc1ccc2c(c1)[C@H](Nc1nc3n(n1)CCN(S(=O)(=O)Cc1ccccc1)C3)CCC2 [Example I-202] ?
// result 80%

// query What value of Herbicidal efficacy against VERPE has been recorded for this entry: Cc1ccc2c(c1)[C@H](Nc1nc3n(n1)CCN(S(=O)(=O)C1CC1)C3)[C@@H](C)C2 [Example I-192]
// result 80%

// query Record request: Herbicidal efficacy against VERPE value, item Cc1ccc2c(c1)C(Nc1nc3n(n1)CCCCS3(=O)=O)CCC2 (centres unmarked) [Example I-234]
// result 80%

// query Tell me the measured Herbicidal efficacy against VERPE of Cc1ccc2c(c1)C(Nc1nc3n(n1)CCN(C(=O)c1cccc(Cl)c1)C3)C(C)C2 (centres unmarked) [Example I-170] , please.
// result 90%

// query Return reported Herbicidal efficacy against VERPE; argument: Cc1ccc2c(c1)[C@H](Nc1nc3n(n1)CCN(S(=O)(=O)Cc1ccccc1)C3)[C@@H](C)C2 [Example I-194]
// result 100%

// query What value of measured Herbicidal efficacy against VERPE is listed for Cc1ccc2c(c1)[C@H](Nc1nc3n(n1)CCN(S(C)(=O)=O)C3)CCC2 [Example I-198] ?
// result 90%

// query # query: Herbicidal efficacy against VERPE of entry CC(=O)N1CCn2nc(N[C@@H]3CCCc4ccccc43)nc2C1 [Example I-163]
// result 90%

// query Which measured Herbicidal efficacy against VERPE value corresponds to Cc1ccc2c(c1)[C@H](Nc1nc3n(n1)CCN(S(C)(=O)=O)C3)[C@@H](C)C2 [Example I-190] ?
// result 80%
